B1: TRIM63 (parent)
chain: QRITQEQEKKLSFIEALIQQYQEQ

Variants of: B1
Experiment: protein stability index of a GFP-peptide fusion (GPS, HEK-293T) (PSI 1-6); higher = more stable;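 note: lentivirally expressed fusions sorted by FACS into six bins by GFP to DsRed ratio, PSI derived from sequencing read proportions per bin multiplied by bin number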
Details: c terminus: a fixed tail appended
Recorded protein stability index by entry
Form field (numeric): enter value without unit.

variant: Y21M
protein stability index: 1.98
//
variant: Q22A
protein stability index: 2.36
//
variant: Q1S
protein stability index: 2.23
//
variant: Q5E
protein stability index: 2.98

# context switch: different variant, same protein stability index
Supply measured protein stability index of "F13I" in your reply.
2.62
